- Test system: COLO 205 colon
- ASSAY_NOTES: NCI-60 one-dose screen, 48 h (100 = growth as untreated, 0 = no growth, -100 = all killed)
- RECORDED_CONDITIONS: 10 µM unless noted
About 83,000 compounds went through this panel and 20% of them were active in at least one assay; those are over-represented in the sample as a whole.
PROPERTY_MEASURED: growth (%)
Report as a plain number; the unit % is understood.

What value of growth has been recorded for this entry: `CN(C)C1CCN(Cc2ccc(NC(=O)c3cncc(C#Cc4cnc(N)c5ncccc45)c3)cc2C(F)(F)F)CC1`
69.6

What value of growth has been recorded for this entry: `CCCc1cc(NC)nc(S(=O)(=O)CC)n1`
120

What value of growth has been recorded for this entry: `Cc1cccnc1NC(=S)Nc1ncccc1C`
116

What value of growth has been recorded for this entry: O=C1CC(N2C(=O)/C(=C/C(Cl)=C\c3ccc([N+](=O)[O-])cc3)SC2=S)C(=O)N1c1ccc(Cl)cc1 (configuration not stated)
4.01

What value of growth has been recorded for this entry: `COc1cc2c(c(OC)c1OC)-c1ccc(OC)c(=O)cc1[C@@H](NC(=O)CCl)CC2`
-71.9

What value of growth has been recorded for this entry: CC(=O)N1N=C(c2ccc(Nc3nc(Nc4ccc(Cl)cc4)nc(Nc4ccc(Cl)cc4)n3)cc2)CC1c1ccco1 (configuration not stated)
109

What value of growth has been recorded for this entry: `CC1(C)CC[C@]2(C(=O)O)CC[C@]3(C)C(=CC[C@@H]4[C@@]5(C)C/C(=C/O)C(=O)C(C)(C)[C@@H]5CC[C@]43C)[C@@H]2C1`
74.9

====

- Tested on: HCC-2998 colon
- ASSAY_NOTES: NCI-60 one-dose screen, 48 h
- RECORDED_CONDITIONS: 10 µM unless noted
Compounds without any hit were thinned out: in the full panel of roughly 83,000, 20% have a hit. Active and inactive are the calls of the source. The calls were made as follows: active = growth percent below 10; inactive = the rest.
Hi! Could you answer with just one of these? active, inactive

What classification did `COc1cc(-c2nc(SCC(C)C)nc(Nc3cccc4ccccc34)c2C#N)cc(OC)c1OC` end up with in this test?
inactive

What classification did `O=C(Cn1c2c(c3ccccc31)CCCC2)Nc1ccc(-c2nc3ccccc3s2)cc1` end up with in this test?
inactive

What classification did `COc1cc2c(c(OC)c1OC)-c1ccc(OC)c(=O)cc1[C@@H](NC(=O)CCl)CC2` end up with in this test?
active

What classification did `O=C1Nc2ccccc2[C@]12CC(c1ccccc1)=NN2` end up with in this test?
inactive

What classification did `O=C1C(Cl)=C(Nc2ccc(O)cc2)C(=O)N1Cc1ccc(Cl)cc1` end up with in this test?
inactive

What classification did `O=C(/C=C/c1cccs1)c1ccc(Cl)nc1` end up with in this test?
inactive

What classification did `O=S(=O)(NCCNc1cc(-c2c(-c3cccc(O)c3)nc3sccn23)ccn1)c1ccc(C(F)(F)F)cc1` end up with in this test?
inactive

What classification did `Fc1ccc(Nc2nc3nonc3nc2Nc2ccc(I)cc2)cc1` end up with in this test?
active

What classification did `CN1CCN(c2ccc(C(=O)Nc3cccc(C#Cc4cccc5[nH]nc(N)c45)c3)cc2C(F)(F)F)CC1` end up with in this test?
active

What classification did `Cc1ccc(-c2nc3nc(-c4ccc(F)cc4)nc(N4CCNCC4)c3o2)cc1` end up with in this test?
inactive

What classification did C=C(CNCCc1ccc(O)cc1)[C@@H]1CC[C@]2(CO)CC[C@]3(C)[C@H](CC[C@@H]4[C@@]5(C)CCC(NCCO)C(C)(C)[C@@H]5CC[C@]43C)[C@@H]12 (some centres undefined) end up with in this test?
active

What classification did N#CC1=C(N)Oc2c(sc3c(Br)cccc23)C1c1ccc(F)cc1 (centres undefined) end up with in this test?
inactive

What classification did CCCC(=O)NC(c1ccc2c(c1)OCO2)c1ccc2cccnc2c1O (centres undefined) end up with in this test?
inactive

What classification did `N#CCSc1nnc2n(Cc3ccccc3)c(=O)c3c4c(sc3n12)CCCC4` end up with in this test?
inactive

What classification did `Cc1nc2sc(C(=O)Nc3ccccc3)c(N)c2cc1C(=O)c1ccccc1` end up with in this test?
inactive

What classification did CCn1cc(C(=O)N/N=C/c2cccs2)c(=O)c2cc(F)c(N3CCNC(C)C3)c(F)c21 (centres undefined) end up with in this test?
inactive

What classification did CC(O)c1cnc(/C=C2\SC(=S)N(Cc3ccccc3)C2=O)s1 (centres undefined) end up with in this test?
inactive

What classification did `O=C(Nc1nn(-c2ccc(Cl)cc2Cl)nc1-c1ccccc1)c1ccccc1` end up with in this test?
inactive

What classification did `CCCCC(=O)Nc1ncc(Cc2ccc(Cl)cc2)s1` end up with in this test?
inactive
